Target: CCK-B (guinea pig cortex) (Cavia porcellus, UniProt H0VZC5)
Construct: guinea pig cortical preparations; from tissue; host or cells: guinea pig brain cortex membranes
Sequence (H0VZC5 1-426): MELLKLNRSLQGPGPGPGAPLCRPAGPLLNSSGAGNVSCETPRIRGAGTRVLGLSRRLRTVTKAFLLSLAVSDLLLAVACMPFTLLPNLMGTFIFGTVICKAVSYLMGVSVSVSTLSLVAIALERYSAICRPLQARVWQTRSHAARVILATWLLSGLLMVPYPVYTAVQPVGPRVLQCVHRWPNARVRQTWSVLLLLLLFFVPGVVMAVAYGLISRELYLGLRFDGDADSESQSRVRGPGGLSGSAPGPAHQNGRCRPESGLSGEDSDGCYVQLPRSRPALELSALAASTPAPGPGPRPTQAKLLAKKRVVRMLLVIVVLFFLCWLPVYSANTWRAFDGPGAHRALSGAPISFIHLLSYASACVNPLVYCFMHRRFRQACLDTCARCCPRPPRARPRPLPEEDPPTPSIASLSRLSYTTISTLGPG
Assay: [3H]L-365,260 CCK-B selective antagonist ligand binding, brain membranes
Conditions: read-out: CCK binding inhibition - IC50, [3H]L-365,260
pIC50: −log10 of the molar value.
readout: pIC50

>  <molecule>
CC1=C\[C@@H](OC(=O)Cc2ccccc2)CC(=O)Cc2nc(co2)C(=O)N2CCC=C2C(=O)O[C@H](C(C)C)[C@H](C)/C=C/C(=O)NC\C=C\1 [Example 5]

>  <readout>
pIC50

>  <rel>
<

>  <observed>
5.52

$$$$
>  <molecule>
CCC(=O)O[C@@H]1/C=C(C)/C=C/CNC(=O)/C=C/[C@@H](C)[C@@H](C(C)C)OC(=O)C2=CCCN2C(=O)c2coc(n2)CC(=O)C1 [Example 3]

>  <readout>
pIC50

>  <rel>
=

>  <observed>
6.00

$$$$
>  <molecule>
CCCCC(=O)O[C@@H]1/C=C(C)/C=C/CNC(=O)/C=C/[C@@H](C)[C@@H](C(C)C)OC(=O)C2=CCCN2C(=O)c2coc(n2)CC(=O)C1 [Example 4]

>  <readout>
pIC50

>  <rel>
=

>  <observed>
5.92

$$$$
>  <molecule>
CC1=C\[C@@H](OC(=O)Nc2cccc(C)c2)CC(=O)Cc2nc(co2)C(=O)N2CCC=C2C(=O)O[C@H](C(C)C)[C@H](C)/C=C/C(=O)NC\C=C\1 [Example 12]

>  <readout>
pIC50

>  <rel>
=

>  <observed>
5.52

$$$$
>  <molecule>
CC1=C\[C@@H](O)CC(O)Cc2nc(co2)C(=O)N2CCC=C2C(=O)O[C@H](C(C)C)[C@H](C)/C=C/C(=O)NC\C=C\1 (single isomer, unassigned) [Example 14B]

>  <readout>
pIC50

>  <rel>
=

>  <observed>
6.28

$$$$
>  <molecule>
CC1=C\[C@@H](OC(=O)c2ccccc2)CC(=O)Cc2nc(co2)C(=O)N2CCC=C2C(=O)O[C@H](C(C)C)[C@H](C)/C=C/C(=O)NC\C=C\1 [Example 6]

>  <readout>
pIC50

>  <rel>
=

>  <observed>
6.72

$$$$
